# run conditions: in NMP, 308.2 K
readout name: solubility (mole fraction)

[[record]]
compound = "CC(=O)N1CCN(c2ccc(OC[C@@H]3CO[C@@](Cn4ccnc4)(c4ccc(Cl)cc4Cl)O3)cc2)CC1 (racemic)"
result_value = 0.0301

